The reported measurements were obtained from patent US12291515B2.

- Tested on: Human pancreatic cancer cell CFPAC-1
- experiment summary: CCK-8 cell proliferation assay, CFPAC-1
- Type: cell-based
- condition parameters: CFPAC-1 cells, CCK-8, 24 hrs with drug, OD 450 nm
pIC50: −log10 of the molar value.
measured property: pIC50

Here's what some known entries look like.
O=C(NCCCCCCCC1CCN(C(=O)c2ccc[nH]2)C1)Nc1ccncc1 (stereo not drawn)    7.55
O=C(NCCCCCC1CCN(C(=O)c2cc3ccccc3[nH]2)C1)Nc1ccncc1 (stereo not drawn)    7.43
COc1cccc(OC)c1C(=O)N1CCC(CCCCCCCNC(=O)Nc2ccnc(F)c2)C1 (stereo not drawn)    7.37
O=C(NCCCCCCCC1CCN(C(=O)c2ccccc2)C1)Nc1ccncc1 (stereo not drawn)    7.44
O=C(NCCCCCC1CCN(C(=O)c2ccccc2)C1)Nc1ccnc(F)c1 (stereo not drawn)    7.55
O=C(NCCCCCCC1CCN(C(=O)c2ccc[nH]2)C1)Nc1cc(F)nc(F)c1 (stereo not drawn)    7.46
O=C(NCCCCCC1CCN(C(=O)c2ccco2)C1)Nc1ccnc(F)c1 (stereo not drawn)    7.48
O=C(NCCCCCCCC1CCN(C(=O)c2ccco2)C1)Nc1ccncc1 (stereo not drawn)    7.28

(P) O=C(NCCCCCCC1CCN(C(=O)c2cc3ccccc3[nH]2)C1)Nc1ccncc1 (stereo not drawn)
(Q) O=C(NCCCCCCC1CCN(C(=O)c2ccccc2)C1)Nc1ccncc1 (stereo not drawn)
Query: When the recorded pIC50 values are compared, which is smaller: that of P or that of Q ? // respond with label for picked entry
Response: P
(P: 7.29, Q: 7.54)

* * *

- Tested on: Human gastric cancer cell MKN45
- experiment summary: CCK-8 cell proliferation assay, MKN-45
- Format: cell-based
- condition parameters: MKN-45 cells, CCK-8, 24 hrs with drug, OD 450 nm
measured property: IC50 (nM)

Here's what some known entries look like.
O=C(NCCCCCCC1CCN(C(=O)c2ccco2)C1)Nc1cc(F)nc(F)c1 (stereo not drawn)    62
COc1cccc(OC)c1C(=O)N1CCC(CCCCCNC(=O)Nc2cccnc2)C1 (stereo not drawn)    65
COc1cccc(OC)c1C(=O)N1CCC(CCCCCCNC(=O)Nc2cc(F)nc(F)c2)C1 (stereo not drawn)    57

(a) O=C(NCCCCCC1CCN(C(=O)c2cc3ccccc3o2)C1)Nc1ccncc1 (stereo not drawn)
(b) O=C(NCCCCCCCC1CCN(C(=O)c2ccc[nH]2)C1)Nc1ccncc1 (stereo not drawn)
(c) O=C(NCCCCCCC1CCN(C(=O)c2cc3ccccc3[nH]2)C1)Nc1ccncc1 (stereo not drawn)
Query: // smallest IC50 at index 0, largest at the end Answer by listing the labels in the requested order.
Response: c, b, a
(c: 32 nM, b: 49 nM, a: 71 nM)

* * *

- Tested on: Human hepatoma cell HepG2
- experiment summary: CCK-8 cell proliferation assay, HepG2
- Type: cell-based
- condition parameters: HepG2 cells, CCK-8, 24 hrs with drug, OD 450 nm
measured property: IC50 (nM)

Here's what some known entries look like.
O=C(NCCCCCC1CCN(C(=O)c2ccc[nH]2)C1)Nc1ccncc1 (stereo not drawn)    41
O=C(NCCCCCCC1CCN(C(=O)c2cccs2)C1)Nc1ccncc1 (stereo not drawn)    43
O=C(NCCCCCC1CCN(C(=O)C2CCCO2)C1)Nc1ccncc1 (stereo not drawn)    124

(a) O=C(NCCCCCC1CCN(C(=O)c2[nH]ccc2F)C1)Nc1ccncc1 (stereo not drawn)
(b) O=C(/C=C/c1cccnc1)NCCCCC1CCN(C(=O)c2ccccc2)CC1 [FK866, reference compound]
Query: Could you please tell me which of these two has the higher IC50: a or b ? // respond with label for picked entry
Response: b

(A) O=C(NCCCCCCC1CCN(C(=O)c2ccccc2)C1)Nc1cc(F)nc(F)c1 (stereo not drawn)
(B) O=C(NCCCCCC1CCN(C(=O)c2ccco2)C1)Nc1ccncc1 (stereo not drawn)
Query: When the recorded IC50 values are compared, which is smaller: that of A or that of B ? // respond with label for picked entry
Response: A

(1) O=C(NCCCCC[C@@H]1CCN(C(=O)c2cccs2)C1)Nc1ccncc1
(2) O=C(NCCCCCCC1CCN(C(=O)c2ccc[nH]2)C1)Nc1cccnc1 (stereo not drawn)
Query: Could you please tell me which of these two has the higher IC50: 1 or 2 ? // respond with label for picked entry
Response: 2
